- Tested on: Enterobacter cloacae N1
RECORDED METRIC: MIC (µg/mL)
Give the quantity in µg/mL, number only.

[
  {
    "COMPOUND": "N#C/C=C/C[C@H]1C(=O)N2C(C(=O)OCc3ccccc3)=CC[C@@H]12 (relative stereo) [compound 56]",
    "MIC (µg/mL)": 20
  }
]

Lab note: Enterobacter cloacae N1 assay, enter MIC for O=C(OC1OC(=O)c2ccccc21)C1=CCC2CC(=O)N12 (stereo not shown) [compound 81] here 20

Report MIC under test system Enterobacter cloacae N1 for CC(C)(O)[C@H]1C(=O)N2C(C(=O)OCc3ccccc3)=CC[C@@H]12 (relative stereo) [Example 4 cis-isomer] . 20

Enter recorded MIC with Enterobacter cloacae N1 for N#C/C=C/C[C@H]1C(=O)N2C(C(=O)OC3OC(=O)c4ccccc43)=CC[C@@H]12 (relative stereo) [compound 61] here. 22
